# procedure.details: Toxicity / tolerated dose in mice
# experimental.context: mouse, in vivo, read-out: maximum dose tolerated
reported.metric: MTD (mg/kg)
State the answer as a number, implicitly in mg/kg.

// sample C[C@@H]1[C@H](O)[C@@H](C)/C=C/C=C/C=C/C=C/C=C/C=C/C=C/[C@H](O[C@@H]2O[C@H](C)[C@@H](O)[C@H](N)[C@@H]2O)C[C@@H]2O[C@](O)(C[C@@H](O)C[C@@H](O)[C@H](O)CC[C@@H](O)C[C@@H](O)CC(=O)O[C@H]1C)C[C@H](O)[C@H]2C(=O)O [Amp B, Amphotericin B] , its MTD was 0.8

----------
# procedure.details: Toxicity / tolerated dose in mice
# experimental.context: mouse, in vivo
reported.metric: LD50

// sample C[C@@H]1[C@H](O)[C@@H](C)/C=C/C=C/C=C/C=C/C=C/C=C/C=C/[C@H](O[C@@H]2O[C@H](C)[C@@H](O)[C@H](N)[C@@H]2O)C[C@@H]2O[C@](O)(C[C@@H](O)C[C@@H](O)[C@H](O)CC[C@@H](O)C[C@@H](O)CC(=O)O[C@H]1C)C[C@H](O)[C@H]2C(=O)O , its LD50 was ~1.2 mg/kg
